details: in n-propanol, 327.85 K
readout label: solubility (mole fraction)

>>> df
                            chemical_string    value
0  C[C@@H]1CC[C@@]2(OC1)O[C@H]1C[C@H]3[C@@H]4CC=C5C[C@@H](O)CC[C@]5(C)[C@H]4CC[C@]3(C)[C@H]1[C@@H]2C  0.00622

* * *

conditions: in ethanol, 289.15 K
readout label: solubility (mole fraction)

                            chemical_string               readout_label    value
0  C[C@@H]1CC[C@@]2(OC1)O[C@H]1C[C@H]3[C@@H]4CC=C5C[C@@H](O)CC[C@]5(C)[C@H]4CC[C@]3(C)[C@H]1[C@@H]2C  solubility (mole fraction)  0.00106

* * *

settings: in ethanol, 329.05 K
readout label: solubility (mole fraction)

>>> print(df.to_string())
                            chemical_string               readout_label    value
0  C[C@@H]1CC[C@@]2(OC1)O[C@H]1C[C@H]3[C@@H]4CC=C5C[C@@H](O)CC[C@]5(C)[C@H]4CC[C@]3(C)[C@H]1[C@@H]2C  solubility (mole fraction)  0.00338

* * *

conditions: in tert-butanol, 304.65 K
readout label: solubility (mole fraction)

>>> print(df.to_string())
                            chemical_string    value
0  C[C@@H]1CC[C@@]2(OC1)O[C@H]1C[C@H]3[C@@H]4CC=C5C[C@@H](O)CC[C@]5(C)[C@H]4CC[C@]3(C)[C@H]1[C@@H]2C  0.00108

* * *

settings: in n-butanol, 312.65 K
readout label: solubility (mole fraction)

                            chemical_string    value
0  C[C@@H]1CC[C@@]2(OC1)O[C@H]1C[C@H]3[C@@H]4CC=C5C[C@@H](O)CC[C@]5(C)[C@H]4CC[C@]3(C)[C@H]1[C@@H]2C  0.00767

* * *

conditions: in ethanol, 305.75 K
readout label: solubility (mole fraction)

                            chemical_string   value
0  C[C@@H]1CC[C@@]2(OC1)O[C@H]1C[C@H]3[C@@H]4CC=C5C[C@@H](O)CC[C@]5(C)[C@H]4CC[C@]3(C)[C@H]1[C@@H]2C  0.0017

* * *

settings: in n-butanol, 328.45 K
readout label: solubility (mole fraction)

>>> df
                            chemical_string  value
0  C[C@@H]1CC[C@@]2(OC1)O[C@H]1C[C@H]3[C@@H]4CC=C5C[C@@H](O)CC[C@]5(C)[C@H]4CC[C@]3(C)[C@H]1[C@@H]2C  0.012

* * *

conditions: in n-pentanol, 322.65 K
readout label: solubility (mole fraction)

                            chemical_string   value
0  C[C@@H]1CC[C@@]2(OC1)O[C@H]1C[C@H]3[C@@H]4CC=C5C[C@@H](O)CC[C@]5(C)[C@H]4CC[C@]3(C)[C@H]1[C@@H]2C  0.0116

* * *

details: in isobutanol, 305.15 K
readout label: solubility (mole fraction)

>>> df
                            chemical_string               readout_label    value
0  C[C@@H]1CC[C@@]2(OC1)O[C@H]1C[C@H]3[C@@H]4CC=C5C[C@@H](O)CC[C@]5(C)[C@H]4CC[C@]3(C)[C@H]1[C@@H]2C  solubility (mole fraction)  0.00236

* * *

conditions: in n-propanol, 322.75 K
readout label: solubility (mole fraction)

>>> print(df.to_string())
                            chemical_string               readout_label    value
0  C[C@@H]1CC[C@@]2(OC1)O[C@H]1C[C@H]3[C@@H]4CC=C5C[C@@H](O)CC[C@]5(C)[C@H]4CC[C@]3(C)[C@H]1[C@@H]2C  solubility (mole fraction)  0.00542

* * *

settings: in n-butanol, 307.65 K
readout label: solubility (mole fraction)

>>> print(df.to_string())
                            chemical_string    value
0  C[C@@H]1CC[C@@]2(OC1)O[C@H]1C[C@H]3[C@@H]4CC=C5C[C@@H](O)CC[C@]5(C)[C@H]4CC[C@]3(C)[C@H]1[C@@H]2C  0.00659

* * *

details: in n-pentanol, 324.15 K
readout label: solubility (mole fraction)

>>> df
                            chemical_string               readout_label   value
0  C[C@@H]1CC[C@@]2(OC1)O[C@H]1C[C@H]3[C@@H]4CC=C5C[C@@H](O)CC[C@]5(C)[C@H]4CC[C@]3(C)[C@H]1[C@@H]2C  solubility (mole fraction)  0.0123

* * *

details: in isooctanol, 299.75 K
readout label: solubility (mole fraction)

>>> df
                            chemical_string               readout_label   value
0  C[C@@H]1CC[C@@]2(OC1)O[C@H]1C[C@H]3[C@@H]4CC=C5C[C@@H](O)CC[C@]5(C)[C@H]4CC[C@]3(C)[C@H]1[C@@H]2C  solubility (mole fraction)  0.0091

* * *

settings: in isooctanol, 329.75 K
readout label: solubility (mole fraction)

In [3]: df
Out[3]:
                            chemical_string   value
0  C[C@@H]1CC[C@@]2(OC1)O[C@H]1C[C@H]3[C@@H]4CC=C5C[C@@H](O)CC[C@]5(C)[C@H]4CC[C@]3(C)[C@H]1[C@@H]2C  0.0199

* * *

details: in ethanol, 334.15 K
readout label: solubility (mole fraction)

>>> df
                            chemical_string    value
0  C[C@@H]1CC[C@@]2(OC1)O[C@H]1C[C@H]3[C@@H]4CC=C5C[C@@H](O)CC[C@]5(C)[C@H]4CC[C@]3(C)[C@H]1[C@@H]2C  0.00388

* * *

conditions: in n-pentanol, 296.15 K
readout label: solubility (mole fraction)

>>> df
                            chemical_string               readout_label    value
0  C[C@@H]1CC[C@@]2(OC1)O[C@H]1C[C@H]3[C@@H]4CC=C5C[C@@H](O)CC[C@]5(C)[C@H]4CC[C@]3(C)[C@H]1[C@@H]2C  solubility (mole fraction)  0.00507

* * *

conditions: in isooctanol, 315.95 K
readout label: solubility (mole fraction)

In [3]: df
Out[3]:
                            chemical_string               readout_label   value
0  C[C@@H]1CC[C@@]2(OC1)O[C@H]1C[C@H]3[C@@H]4CC=C5C[C@@H](O)CC[C@]5(C)[C@H]4CC[C@]3(C)[C@H]1[C@@H]2C  solubility (mole fraction)  0.0146

* * *

settings: in isobutanol, 319.65 K
readout label: solubility (mole fraction)

                            chemical_string    value
0  C[C@@H]1CC[C@@]2(OC1)O[C@H]1C[C@H]3[C@@H]4CC=C5C[C@@H](O)CC[C@]5(C)[C@H]4CC[C@]3(C)[C@H]1[C@@H]2C  0.00672

* * *

details: in n-pentanol, 301.55 K
readout label: solubility (mole fraction)

In [3]: df
Out[3]:
                            chemical_string    value
0  C[C@@H]1CC[C@@]2(OC1)O[C@H]1C[C@H]3[C@@H]4CC=C5C[C@@H](O)CC[C@]5(C)[C@H]4CC[C@]3(C)[C@H]1[C@@H]2C  0.00615

* * *

details: in ethanol, 331.25 K
readout label: solubility (mole fraction)

>>> print(df.to_string())
                            chemical_string    value
0  C[C@@H]1CC[C@@]2(OC1)O[C@H]1C[C@H]3[C@@H]4CC=C5C[C@@H](O)CC[C@]5(C)[C@H]4CC[C@]3(C)[C@H]1[C@@H]2C  0.00353

* * *

details: in n-propanol, 307.95 K
readout label: solubility (mole fraction)

In [3]: df
Out[3]:
                            chemical_string               readout_label   value
0  C[C@@H]1CC[C@@]2(OC1)O[C@H]1C[C@H]3[C@@H]4CC=C5C[C@@H](O)CC[C@]5(C)[C@H]4CC[C@]3(C)[C@H]1[C@@H]2C  solubility (mole fraction)  0.0034

* * *

settings: in n-pentanol, 309.85 K
readout label: solubility (mole fraction)

In [3]: df
Out[3]:
                            chemical_string    value
0  C[C@@H]1CC[C@@]2(OC1)O[C@H]1C[C@H]3[C@@H]4CC=C5C[C@@H](O)CC[C@]5(C)[C@H]4CC[C@]3(C)[C@H]1[C@@H]2C  0.00775
